Values were extracted from the Human Domainome abundance scans (Beltran et al. 2025).

Measured abundance fitness by item
B1: Steroid hormone receptor ERR2, residues 100 to 176; numbered along this chain, O95718 (parent)
chain: KRLCLVCGDIASGYHYGVASCEACKAFFKRTIQGNIEYSCPATNECEITKRRRKSCQACRFMKCLKVGMLKEGVRLD

variants of: B1; assay: abundance fitness (aPCA) (normalised: wild type 0, dead -1); higher = more abundant; growth selection in yeast, the domain comes from the species named; conditions: Homo sapiens
Just the number, please, no unit after it.

Example results:
In [3]: df
Out[3]:
   sequence_change  observed_value
0             A58Y          -0.347
1             I32S          -0.184

Requested read-out: abundance fitness. Entry: D9C
-0.829

Requested read-out: abundance fitness. Entry: K1F
-0.641

Requested read-out: abundance fitness. Entry: Y16Q
-0.366
